test system: J774.A1; experiment: Cytotoxicity against mouse J774.A1 cells assessed as reduction in cell viability at 10 uM incubated for 24 hrs by MTT assay; assay type: toxicity, cell-based; details: j774.a1, 24 h
Observable: Activity

# annotated cases, reported Activity shown
{"Molecular String": "CC(C)=CCC/C(C)=C/Cc1c(O)cc([Si](C)(C)C)cc1O", "Activity": "Non-Toxic"}
{"Molecular String": "CCCC[Si](C)(C)C1=CC(=O)C(C/C=C(\\C)CCC=C(C)C)=C(O)C1=O", "Activity": "Non-Toxic"}
{"Molecular String": "C=C(C)[C@@H]1CCC(C)=C[C@H]1C1=C(O)C(=O)C([Si](C)(C)C)=CC1=O", "Activity": "Non-Toxic"}
{"Molecular String": "CCCC[Si](C)(C)c1cc(O)c(C/C=C(\\C)CCC=C(C)C)c(O)c1", "Activity": "Non-Toxic"}
{"Molecular String": "CC(C)=CCC/C(C)=C/CC1=C(O)C(=O)C([Si](C)(C)C)=CC1=O", "Activity": "Non-Toxic"}
{"Molecular String": "CCCCCC[Si](C)(C)c1cc(O)c(C/C=C(\\C)CCC=C(C)C)c(O)c1", "Activity": "Non-Toxic"}
{"Molecular String": "C=C(C)[C@@H]1CCC(C)=C[C@H]1c1c(O)cc([Si](C)(C)CCCC)cc1O", "Activity": "Non-Toxic"}
{"Molecular String": "C=C(C)[C@@H]1CCC(C)=C[C@H]1c1c(O)cc([Si](C)(C)CCCCCC)cc1O", "Activity": "Non-Toxic"}

Let us move to another entry and its Activity.
If you can, please state the reported Activity value of CCCCCC[Si](C)(C)C1=CC(=O)C(C/C=C(\C)CCC=C(C)C)=C(O)C1=O . Non-Toxic

###

target: NACHT, LRR and PYD domains-containing protein 3 (Mus musculus) (UniProt Q8R4B8); assay: Inhibition of NLRP3 inflammasome in mouse J774.A1 cells assessed as reduction in IL-6 in presence of LPS at 0.1 to 1 uM pretreated for 1 hr followed by LPS stimulation measured after 24 hrs by ELISA method; assay type: cell-based; conditions: dose 0.1-1 µM, time 25.0 hrs
Sequence (Q8R4B8 whole entry, the tested form may be a part): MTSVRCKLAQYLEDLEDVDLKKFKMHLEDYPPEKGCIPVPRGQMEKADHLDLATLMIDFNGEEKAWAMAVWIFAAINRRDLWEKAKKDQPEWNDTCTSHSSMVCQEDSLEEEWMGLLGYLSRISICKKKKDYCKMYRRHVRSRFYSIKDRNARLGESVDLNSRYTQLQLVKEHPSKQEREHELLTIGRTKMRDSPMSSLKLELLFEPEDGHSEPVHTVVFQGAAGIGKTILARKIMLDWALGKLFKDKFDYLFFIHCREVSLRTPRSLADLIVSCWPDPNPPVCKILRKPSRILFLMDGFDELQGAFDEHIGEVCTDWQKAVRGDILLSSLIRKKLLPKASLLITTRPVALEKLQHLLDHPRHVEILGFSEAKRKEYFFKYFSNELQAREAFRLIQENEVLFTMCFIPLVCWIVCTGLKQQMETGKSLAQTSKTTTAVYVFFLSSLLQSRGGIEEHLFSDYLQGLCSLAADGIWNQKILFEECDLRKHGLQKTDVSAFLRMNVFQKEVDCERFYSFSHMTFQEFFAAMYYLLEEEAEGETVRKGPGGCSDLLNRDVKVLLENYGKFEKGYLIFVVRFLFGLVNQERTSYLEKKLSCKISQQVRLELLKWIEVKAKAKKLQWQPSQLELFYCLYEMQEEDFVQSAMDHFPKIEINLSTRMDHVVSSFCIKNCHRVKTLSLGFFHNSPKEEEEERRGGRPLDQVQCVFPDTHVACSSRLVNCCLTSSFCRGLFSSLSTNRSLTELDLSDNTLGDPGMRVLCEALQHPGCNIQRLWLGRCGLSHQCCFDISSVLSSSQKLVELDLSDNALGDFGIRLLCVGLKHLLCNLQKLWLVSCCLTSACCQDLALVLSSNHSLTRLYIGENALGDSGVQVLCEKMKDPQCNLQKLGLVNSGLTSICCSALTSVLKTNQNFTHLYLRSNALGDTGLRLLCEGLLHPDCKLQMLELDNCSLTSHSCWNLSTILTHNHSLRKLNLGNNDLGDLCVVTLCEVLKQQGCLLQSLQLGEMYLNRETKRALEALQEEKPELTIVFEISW
Calls of active or inactive are those of the source. The rule behind the calls is not given here.
Your reply should match one of these outcome classes. True for active, False for inactive

// below: answered compounds
{"Molecular String": "CC(C)=CCC/C(C)=C/CC1=C(O)C(=O)C([Si](C)(C)C)=CC1=O", "Assigned Class": "False"}
{"Molecular String": "CCCCCC[Si](C)(C)C1=CC(=O)C(C/C=C(\\C)CCC=C(C)C)=C(O)C1=O", "Assigned Class": "False"}
{"Molecular String": "CCCC[Si](C)(C)C1=CC(=O)C(C/C=C(\\C)CCC=C(C)C)=C(O)C1=O", "Assigned Class": "False"}

Please look at the following compound next.
Per the assay record, what outcome was assigned to C=C(C)[C@@H]1CCC(C)=C[C@H]1C1=C(O)C(=O)C([Si](C)(C)C)=CC1=O ? True

###

assay: Metabolic stability in human liver microsomes assessed as drug degradation measured after 5 mins by LC-MS method relative to control; assay type: ADME, Microsome; details: read-out: Drug degradation
Observable: metabolised at 5 min (%)
Write it as a number; the unit % goes unstated.

Name the recorded metabolised at 5 min for C=C(C)[C@@H]1CCC(C)=C[C@H]1C1=C(O)C(=O)C([Si](C)(C)C)=CC1=O . 10
